These entries and their values trace back to ChEMBL document CHEMBL4513216.

This section presents molecules with their documented cytotoxicity at 10 µM values.
- procedureSummary: Toxicity liver stage against HepG2, at 10uM
- Format: cell-based
- Design: test concentration 10 uM, cell line HepG2-A16-CD81EGFP
- testParameters: human, HepG2-A16-CD81EGFP cells; read-out: INHIBITION
Unit % implied. Number only.

CC(C)n1nc2c(cc1=O)CN(Cc1nnc(C3CC3)o1)CC2 ... -18.8

State the recorded cytotoxicity at 10 µM for this entry: `Cc1cc(C)c2c(N3CCN(C(=O)N4CCOCC4)CC3)ncnc2n1`
-8.29

Looking for the measured cytotoxicity at 10 µM of Cn1cc(CN2Cc3cn(C)nc3C(COCC3CC3)C2)cn1 (stereo not drawn) , can you help?
-69.8

Reported cytotoxicity at 10 µM, molecule Cc1cc(C2CCCCN2C(=O)CN2C(=O)OC(C)(C)C2=O)no1 (stereo not drawn) : ____
3.35
